pIC50: −log10 of the molar value.
Values of pIC50 for USP30 (Homo sapiens (Human), UniProt Q70CQ3), collected from a number of published sources:

Answered examples (3):
N#CN1CC[C@@H](N2c3ccccc3N(Cc3ccccc3)S2(=O)=O)C1 : 6.00 to 7.00
COc1ccccc1-c1cccc(N2CCN([C@@H]3CCN(C#N)C3)S2(=O)=O)c1 : > 7.00
N#CN1C[C@H]2OCCN(c3ncc(-c4ccccc4)s3)[C@H]2C1 (relative stereo) : 6.00 to 7.00

Here is another molecule to look at.
Given CCN(C(=O)[C@@H]1CCN(C#N)C1)c1ccc(-c2ccc(C#N)cc2)cn1 , state its recorded pIC50.
5.00 to 6.00
